I'd appreciate it if you could supply IC50 values for the items below.
# Tested on: HCT-116 (colon cancer) cell line
# Assay Comment: MTT cell viability assay, HCT-116
# Type: cell-based, human
# Run Conditions: Homo sapiens, HCT-116, 72 h, MTT, 72 h, 1-100 µM, mean ± SD
Answers are plain numbers, in µM.

Cc1cc(S(=O)(=O)N=c2[nH]c3ccccc3[nH]2)c(SCc2nc(N)nc(NCc3ccccc3)n2)cc1Cl; 22
Cc1cc(S(=O)(=O)N=c2[nH]c3ccc(Cl)cc3[nH]2)c(SCc2nc(N)nc(Nc3ccc(F)cc3)n2)cc1Cl; 43
Cc1cc(S(=O)(=O)N=c2[nH]c3ccccc3[nH]2)c(SCc2nc(N)nc(N3CCN(c4ccc(Cl)c(Cl)c4)CC3)n2)cc1Cl; 16
Cc1cc(S(=O)(=O)N=c2[nH]c3ccc(F)cc3[nH]2)c(SCc2nc(N)nc(N(C)c3ccc(Cl)cc3)n2)cc1Cl; 18
Cc1cc(S(=O)(=O)N=c2[nH]c3ccc(F)cc3[nH]2)c(SCc2nc(N)nc(N3CCN(c4ccccc4)CC3)n2)cc1Cl; 17

Here are 8 molecules. What values of IC50 were reported for them?
1. Cc1cc(S(=O)(=O)N=c2[nH]c3ccccc3[nH]2)c(SCc2nc(N)nc(N3CCN(c4ccc(Cl)cc4)CC3)n2)cc1Cl
2. Cc1cc(S(=O)(=O)N=c2[nH]c3ccccc3[nH]2)c(SCc2nc(N)nc(N3CCN(c4ccccc4)CC3)n2)cc1Cl
3. CC1=NN(c2nc(N)nc(CSc3cc(Cl)c(C)cc3S(=O)(=O)N=c3[nH]c4ccccc4[nH]3)n2)C(C)(C)C1
4. Cc1cc(S(=O)(=O)N=c2[nH]c3ccccc3[nH]2)c(SCc2nc(N)nc(N3CCN(Cc4ccccc4)CC3)n2)cc1Cl
5. COc1ccccc1N1CCN(c2nc(N)nc(CSc3cc(Cl)c(C)cc3S(=O)(=O)N=c3[nH]c4ccccc4[nH]3)n2)CC1
6. Cc1cc(S(=O)(=O)N=c2[nH]c3ccccc3[nH]2)c(SCc2nc(N)nc(N3CCN(C(c4ccccc4)c4ccccc4)CC3)n2)cc1Cl
7. COc1ccc(N2CCN(c3nc(N)nc(CSc4cc(Cl)c(C)cc4S(=O)(=O)N=c4[nH]c5ccccc5[nH]4)n3)CC2)cc1
8. Cc1cc(S(=O)(=O)N=c2[nH]c3ccc(F)cc3[nH]2)c(SCc2nc(N)nc(Nc3cccc(Cl)c3)n2)cc1Cl

RESULT:
16
15
23
17
16
18
35
37
